tested on: Staphylococcus aureus; experiment: Inhibition of biofilm formation of methicillin-sensitive Staphylococcus aureus at 50 uM by crystal violet staining-based spectrophotometric analysis relative to control; type: functional
testReadout: inhibition at 50 µM (%)
Kindly provide the numeric value in % only, without the unit symbol.

- smilesCode: "CCOc1ccc(/C=C2\\C(=O)N(c3ccccc3)N=C2CC(=O)OC)cc1OC"
  measuredTarget: "Staphylococcus aureus"
  readingUnit: "%"
  measured: 57.8
- smilesCode: "COC(=O)CC1=NN(c2ccccc2)C(=O)/C1=C\\c1ccccc1Br"
  measuredTarget: "Staphylococcus aureus"
  readingUnit: "%"
  measured: 46.5
- smilesCode: "COC(=O)CC1=NN(c2ccccc2)C(=O)/C1=C\\c1ccco1"
  measuredTarget: "Staphylococcus aureus"
  readingUnit: "%"
  measured: -15.6
- smilesCode: "COC(=O)CC1=NN(c2ccccc2)C(=O)/C1=C\\c1ccc(Cl)cc1"
  measuredTarget: "Staphylococcus aureus"
  readingUnit: "%"
  measured: 86.7
- smilesCode: "COC(=O)CC1=NN(c2ccccc2)C(=O)/C1=C\\c1ccc(O)cc1"
  measuredTarget: "Staphylococcus aureus"
  readingUnit: "%"
  measured: 9.96

[ask] Quick one: inhibition at 50 µM for COC(=O)CC1=NN(c2ccccc2)C(=O)/C1=C\c1ccc(N(C)C)cc1 ?
[reply] -27.3

[ask] Could you do the same for COC(=O)CC1=NN(c2ccccc2)C(=O)/C1=C\c1c[nH]c2ccccc12 , please?
[reply] 8.02

[ask] Entry to check: COC(=O)CC1=NN(c2ccccc2)C(=O)/C1=C\c1cc(OC)c(OC)c(OC)c1
[reply] 19.8

[ask] Now try COC(=O)CC1=NN(c2ccccc2)C(=O)/C1=C\c1ccsc1 .
[reply] -5.79

[ask] For COC(=O)CC1=NN(c2ccccc2)C(=O)/C1=C\c1ccc(OC)cc1OC then?
[reply] -61.9
